These data points were gathered from patent US20230181640A1.

Target: T1, hBCMA-ECD-Fc (fusion protein of human BCMA extracellular domain Met1-Ala54 and human IgG1 Fc fragment … (human, UniProt Q02223 1-54))
T1 construct: range 1-54; also the immunogen; also called soluble extracellular domain of human BCMA; not shown: human IgG1 Fc fragment, Pro100-Lys330
T1 sequence (looked up): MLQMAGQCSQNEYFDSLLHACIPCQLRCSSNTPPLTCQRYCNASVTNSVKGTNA
Test: ELISA, chimeric antibody supernatant; also: test concentration or dose not given here
ASSAY_ENDPOINT: ELISA (OD450 nm)
Could you give the number and then its unit, please?

Field: example entries. Status: answers known.
Input chimeric antibody 107A9A4D2VH/VL-1 (antibody, human IgG1, kappa, V domains shown, IgG1,κ chimeric antibody, HEK 293T supernatant; also called 107A9A4D2VH paired with 107A9A4D2VL-1) VH: EVQLQQSGPVLVKPGASVKMSCKASGYTFTDLYMNWLKQSHGKRLEWIGVINPYNGGTSYNQKFKGKATLTVDKSSSTAYMDLNSLTSEDSAVYYCARGDSIYVMDYWGQGTSFTVSS VL: ENVLTQSPAIMSASPGEKVTMTCSASSSVSYMHWYQQKSSTSPKLWIYDTSKLSSGVPGRFSGSGSGKSYSLTISSMEAEDVATYYCFQGSGYPLFTFGSGTKLEIKR . Output ELISA (OD450 nm): 0.13 OD450

Input chimeric antibody of hybridoma 105C10F1 (antibody, human IgG1, kappa, V domains shown, IgG1,κ chimeric antibody, HEK 293T supernatant) VH: EVKLLQSGGGLVQPGGSLKLSCAASGIDFSRYWMSWVRRAPGKGLEWIGEINPDSSTINYAPSLKDKFIISRDAAKNTLYLQMSKVRSEDTALYYCATLYYDYDGDYAMDYWGQGTSVTVSS VL: DIVMTPSQKFMSTSVGDRVSVTCKASQNVGTNVAWYQQKPGQSPKALIYSASYRYSGVPDRFTGSGSGTDFTLTISNVQSEDLAEYFCQHYNSYPFTFGSGTKLEIKR . Output ELISA (OD450 nm): 2.39 OD450

Input chimeric antibody of hybridoma 113B3F12 (antibody, human IgG1, kappa, V domains shown, IgG1,κ chimeric antibody, HEK 293T supernatant) VH: EVQLQQSGPVLVKPGASVKMSCKASGYTFTDYYMNWVKQSHGKSLEWIGVINPYNGGTDYNQKFKGKATLTVDKSSSTAYMELNSLTSEDSAVYYCARRRESYGTSYQGAYFDSWGQGTTLTVSS VL: DIQMTQTTSSLSASLGDRVTISCRASQDISNYLNWYQQKPDGTVKLLIYYTSRLHSGVPSRFSGSGSGTDYSLSISDLEQEDIATYFCQQVITLPWTFGGGTKLEIKR . Output ELISA (OD450 nm): 0.09 OD450

More entries:
Input chimeric antibody of hybridoma 6G10-1D7 (antibody, human IgG1, kappa, V domains shown, IgG1,κ chimeric antibody, HEK 293T supernatant) VH: EVQLQQSGPELVKPGASMKISCKASDYSFTDYIMTWVKQSHGKNLEWIGLINPYNGGTTYNQKFKDKATFTVDKSSTTAYMDLLSLTSEDSAVYYCARRGITTDYYTMDYWGQGTSVTVSS VL: DIVMTQSQRFMSTSVGDRVSITCKASQSVGTAVAWYQQTPGQFPKLLIYSTSNRYTGVPDRFTGSGSGTDFTLTISNMQSEDLADYFCQQYSTYPLTFGSGTKLELKR . Output ELISA (OD450 nm): 2.35 OD450
